Entries and their residual enzymatic activity relative to control wells
molecular target: HDAC4 (Homo sapiens, UniProt P56524); construct: purchased BPS Bioscience 50004; assay: HDAC inhibition assay (fluorogenic, Ac-Leu-Gly-Lys(Tfa)-AMC); assay type: biochemical; details: inhibitor 5 µM, 2 internal replicates
Sequence (P56524 627-1084): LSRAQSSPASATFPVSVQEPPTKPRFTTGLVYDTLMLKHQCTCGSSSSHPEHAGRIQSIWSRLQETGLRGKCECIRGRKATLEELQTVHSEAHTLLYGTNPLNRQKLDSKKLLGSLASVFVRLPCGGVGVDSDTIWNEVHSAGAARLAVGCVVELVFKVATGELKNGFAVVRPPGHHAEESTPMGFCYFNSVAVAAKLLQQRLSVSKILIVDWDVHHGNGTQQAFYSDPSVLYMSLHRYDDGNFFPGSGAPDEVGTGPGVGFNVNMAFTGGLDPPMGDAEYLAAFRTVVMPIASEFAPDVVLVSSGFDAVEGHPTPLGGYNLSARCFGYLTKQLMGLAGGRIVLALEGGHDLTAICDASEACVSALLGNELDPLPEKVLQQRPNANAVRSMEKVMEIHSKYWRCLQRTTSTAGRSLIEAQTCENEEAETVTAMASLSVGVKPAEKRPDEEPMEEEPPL
Non-standard residues stand in square brackets, D forms with d. Residues, ends and D or L forms follow the SMILES beside them. *: point of attachment. Asu = N[C@@H](CCCCCC(=O)O)C(=O)O; NHOH = ON*
# answer = number (no unit)

Answered examples (2):
[[record]]
molecule = "CC(=O)N[C@@H](CC(C)C)C(=O)NCC(=O)N[C@@H](CCCCN)C(=O)NCC(=O)NCC(=O)N[C@@H](C)C(=O)N[C@@H](CCCCCC(=O)NO)C(=O)N[C@@H](CCCNC(=N)N)C(=O)N[C@@H](Cc1c[nH]cn1)C(=O)N[C@@H](CCCNC(=N)N)C(=O)N[C@@H](CCCCN)C(=O)N[C@H](C(=O)N[C@@H](CC(C)C)C(=O)N[C@@H](CCCNC(=N)N)C(=O)N[C@@H](CC(=O)O)C(=O)N[C@@H](CC(N)=O)C(=O)N[C@@H](Cc1c[nH]c2ccccc12)C(N)=O)C(C)C [16a] (Ac-LGKGGA[Asu](NHOH)RHRKVLRDNW-NH2)"
measured_value = 96.58

[[record]]
molecule = "CC(=O)N[C@@H](C)C(=O)N[C@H](C(=O)NCC(=O)NCC(=O)N[C@H](C(=O)N[C@@H](CCCCCC(=O)NO)C(=O)N[C@@H](CCCCN)C(=O)N1CCC[C@H]1C(=O)N[C@@H](Cc1c[nH]cn1)C(=O)N[C@@H](CCCNC(=N)N)C(=O)N[C@@H](Cc1ccc(O)cc1)C(=O)N[C@@H](CCCNC(=N)N)C(=O)N1CCC[C@H]1C(=O)NCC(=O)N[C@H](C(=O)N[C@H](C(=O)N[C@@H](Cc1c[nH]c2ccccc12)C(N)=O)C(C)C)[C@@H](C)O)C(C)C)[C@@H](C)O [15a] (Ac-ATGGV[Asu](NHOH)KPHRYRPGTVW-NH2)"
measured_value = 108.47


Please look at the following molecule next.
Field residual enzymatic activity relative to control wells (entry CC(=O)N[C@@H](C)C(=O)N1CCC[C@H]1C(=O)N[C@@H](C)C(=O)N1CCC[C@H]1C(=O)N[C@@H](CCCCN)C(=O)N[C@@H](CCCCCC(=O)NO)C(=O)NCC(=O)N[C@@H](CO)C(=O)N[C@@H](CCCCN)C(=O)N[C@@H](CCCCN)C(=O)N[C@@H](C)C(=O)N[C@H](C(=O)N[C@H](C(=O)N[C@@H](CCCCN)C(=O)N[C@@H](C)C(=O)N[C@@H](CCC(N)=O)C(=O)N[C@@H](Cc1c[nH]c2ccccc12)C(N)=O)[C@@H](C)O)C(C)C [10a] (Ac-APAPK[Asu](NHOH)GSKKAVTKAQW-NH2) ) reads 95.93
